molecular target: T1, SARS-CoV2 Spike ecto foldon Trimer expressed with a C-terminal myc-myc-hexahistidine (SARS-CoV-2, UniProt P0DTC2 14-1213); assay: SPR Biacore, mAb captured by anti-hFc, 25C
T1 construct: extracellular domain
experimental-readout: koff (s⁻¹)
All answers are understood in s⁻¹, so give the number only.

Query block: Fill in the blank: the reported koff of mAb14255 (antibody, V domains shown) VH: QVQLQESGPGLVKPSETLSLTCTVSGGSISGYYWSWIRQPPGKGLDWIGYIYYRGNTNYNPSLKSRVTISVDTSNNQFSLKLSSVTAADTAVYYCARYGEGYGDASGYHFDYWGQGTLVTVSS VL: QSALTQPASVSGSPGQSITISCTGTSSDVGSYNLVSWYQQHPGKAPKLMIYEDSKRPSGVANPFSGSKSGNTASLTISGLQAEDEADYYCSSYAGSSTWVFGGGTKLTVLG is ____.
Result block: 0.000138
